Below is a list of entries, each paired with its recorded IC50 value.
Target: human vanin-1 (Homo sapiens (Human), UniProt O95497)
Sequence (O95497 22-491): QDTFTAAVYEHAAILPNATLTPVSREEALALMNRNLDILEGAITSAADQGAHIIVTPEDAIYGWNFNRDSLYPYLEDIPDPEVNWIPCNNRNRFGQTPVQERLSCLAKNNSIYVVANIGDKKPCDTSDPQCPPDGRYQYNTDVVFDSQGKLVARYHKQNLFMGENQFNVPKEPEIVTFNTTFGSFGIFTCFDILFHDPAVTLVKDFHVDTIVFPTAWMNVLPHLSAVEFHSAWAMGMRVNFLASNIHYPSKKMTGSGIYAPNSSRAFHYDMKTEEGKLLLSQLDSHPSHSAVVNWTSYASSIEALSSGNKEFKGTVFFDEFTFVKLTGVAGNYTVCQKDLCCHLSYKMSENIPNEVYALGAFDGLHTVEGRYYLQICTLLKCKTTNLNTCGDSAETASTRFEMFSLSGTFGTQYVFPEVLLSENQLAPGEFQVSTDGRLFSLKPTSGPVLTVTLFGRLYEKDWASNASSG
Experiment: Human Vanin-1 Enzyme Assay 2
Assay type: biochemical
Conditions: 1 nM human vanin-1, 10 uM substrate, 45 min
observationType: IC50

| compound | measuredOn | experimentalValue |
| --- | --- | --- |
| COc1cccc(C(=O)c2cnc(NCc3cncnc3)nc2)c1 [Example 143] | human vanin-1 (Homo sapiens (Human), UniProt O95497) | 110 nM |
| COc1ccc(CNc2ncc(C(=O)c3cccc(C#N)c3)cn2)cc1 [Example 29] | human vanin-1 (Homo sapiens (Human), UniProt O95497) | 72.7 nM |
| O=C(c1cnc(NCc2cccnc2)nc1)c1cc(F)cc(C(F)(F)F)c1 [Example 128] | human vanin-1 (Homo sapiens (Human), UniProt O95497) | 38.9 nM |
| NC(=O)c1cccc(CNc2ncc(C(=O)c3cccc(Cl)c3)cn2)c1 [Example 48] | human vanin-1 (Homo sapiens (Human), UniProt O95497) | 357 nM |
| COc1cccc(C(=O)c2cnc(NCc3ccccc3)nc2)c1 [Example 45] | human vanin-1 (Homo sapiens (Human), UniProt O95497) | 188 nM |
| CC(C)(Nc1ncc(C(=O)c2ccccc2)cn1)c1ccccc1 [Example 110] | human vanin-1 (Homo sapiens (Human), UniProt O95497) | 238 nM |

----------
Target: UniProt:O95497
Test: Human Vanin-1 Enzyme Assay 3
Format: biochemical
Conditions: 2 nM human vanin-1, 10 uM substrate, 15 min
Below is a list of entries, each paired with its recorded IC50 value.

| entrySmiles | unitDescriptor | ltGtEq | IC50 |
| --- | --- | --- | --- |
| O=C(c1cnc(NCc2ccccc2)nc1)c1cc(F)cc(C(F)(F)F)c1 | µM | = | 0.154 |
| COc1ccc(CNc2ncc(C(=O)c3ccc(Cl)cc3)cn2)cc1 | µM | = | 0.569 |
| Cc1ccc2cc(C(=O)c3cnc(NCc4cccnc4)nc3)ccc2n1 | µM | = | 0.2 |
| O=C(c1ccccc1)c1cnc(NC2(c3ccccc3)CC2)nc1 | µM | = | 0.182 |
| O=C(c1ccccc1)c1cnc(NCc2ccccc2)nc1 | µM | = | 0.537 |
| Cc1cccc(C(=O)c2cnc(NCc3ccc(C(N)=O)cc3)nc2)c1 | µM | = | 0.16 |
| O=C(c1ccc(Cl)cc1)c1cnc(NCc2ccc(F)cc2)nc1 | µM | = | 0.17 |
| O=C(c1ccccc1)c1cnc(NCc2cccnc2)nc1 | µM | = | 0.0693 |
| O=C(c1ccccc1)c1cnc(NCc2cncnc2)nc1 | µM | = | 0.0953 |
| O=C(c1cccc(C(F)(F)F)c1)c1ccc(NCc2cccnc2)nn1 | µM | = | 0.0913 |
| CC(C)(Nc1ncc(C(=O)c2ccccc2)cn1)c1ccccc1 | µM | = | 0.0635 |
| Cc1ccc(CNc2ncc(C(=O)c3cccc(C(F)(F)F)c3)cn2)cn1 | µM | = | 0.0012 |
| Cc1cccc(C(=O)c2cnc(NCc3cccnc3)nc2)c1 | µM | < | 0.013 |

----------
Below is a list of entries, each paired with its recorded pIC50 value.
Target: UniProt O95497
Assay: Human Vanin-1 Enzyme Assay 2
Format: biochemical
Settings: 1 nM human vanin-1, 10 uM substrate, 45 min
pIC50: −log10 of the molar value.

| compound | measuredOn | pIC50 |
| --- | --- | --- |
| O=C(c1cnc(NCc2cccnc2)nc1)c1ccc2c(c1)OCCO2 | UniProt O95497 | 6.83 |
| O=C(c1cnc(NCc2cccnc2)nc1)c1ccccc1F | UniProt O95497 | 7.03 |
| CC(C)(Nc1ncc(C(=O)c2cccc(C(F)(F)F)c2)cn1)c1ccccc1 | UniProt O95497 | 7.30 |
| COc1cccc(C(=O)c2cnc(NCc3ccc(N4CCN(C)CC4)cc3)nc2)c1 | UniProt O95497 | 5.19 |
| N#Cc1cccc(C(=O)c2cnc(NCc3ccc(Cl)cc3)nc2)c1 | UniProt O95497 | 7.66 |
| N#Cc1cc(C(=O)c2cnc(NCc3cncnc3)nc2)ccc1F | UniProt O95497 | 7.17 |
| CS(=O)(=O)c1cccc(C(=O)c2cnc(NC3(c4cncnc4)CC3)nc2)c1 | UniProt O95497 | 8.74 |
| COc1ccc(C(=O)c2cnc(NC(C)c3ccc(C(N)=O)cc3)nc2)cc1 (stereo not drawn) | UniProt O95497 | 5.15 |
| N#Cc1cc(F)cc(C(=O)c2cnc(NCc3cncnc3)nc2)c1 | UniProt O95497 | 6.54 |
| N#Cc1cccc(C(=O)c2cnc(NCc3ccnnc3)nc2)c1 | UniProt O95497 | 6.07 |
| NC(=O)c1cccc(C(=O)c2cnc(NCc3cncnc3)nc2)c1 | UniProt O95497 | 6.86 |
| CC(C)(Nc1ncc(C(=O)c2ccc3c(c2)OCCO3)cn1)c1ccccc1 | UniProt O95497 | 6.10 |
| O=C(c1cnc(NCc2cncnc2)nc1)c1ccc2c(c1)OCCO2 | UniProt O95497 | 6.31 |
| Cn1ncc2ccc(C(=O)c3cnc(NCc4cncnc4)nc3)cc21 | UniProt O95497 | 5.99 |
| CC(C)(Nc1ncc(C(=O)c2cccc(Cl)c2)cn1)c1ccccc1 | UniProt O95497 | 7.19 |

----------
Target: human vanin-1 (Homo sapiens (Human), UniProt O95497)
Test: Human Vanin-1 Enzyme Assay 3
Format: biochemical
Settings: 2 nM human vanin-1, 10 uM substrate, 15 min
Below is a list of entries, each paired with its recorded IC50 value.
observationType: IC50 (µM)

| entrySmiles | ltGtEq | experimentalValue |
| --- | --- | --- |
| O=C(c1cnc(NCc2cccnn2)nc1)c1cccc(C(F)(F)F)c1 | = | 0.0816 |
| N#Cc1cccc(C(=O)c2cnc(NCc3ccc(Cl)cc3)nc2)c1 | = | 0.0084 |
| N#Cc1cccc(C(=O)c2cnc(NCc3ccc(C(N)=O)cc3)nc2)c1 | = | 0.0788 |
| N#Cc1ccc(CNc2ncc(C(=O)c3cccc(C(F)(F)F)c3)cn2)cc1 | = | 0.112 |
| O=C(c1cnc(NCc2cncnc2)nc1)c1cccc(C(F)(F)F)c1 | = | 0.0061 |
| COc1cccc(C(=O)c2cnc(NCc3ccc(N4CCN(C)CC4)cc3)nc2)c1 | = | 3.79 |
| N#Cc1ccc(CNc2ncc(C(=O)c3ccc(F)c(C(F)(F)F)c3)cn2)cc1 | = | 0.111 |
| COc1cccc(C(=O)c2cnc(NCc3ccc(F)cc3)nc2)c1 | = | 0.0772 |
| O=C(c1cccc(C(F)(F)F)c1)c1ccc(NCc2ccc(F)cc2F)nn1 | = | 0.566 |
| N#Cc1cccc(C(=O)c2cnc(NCc3ccccc3Cl)nc2)c1 | = | 0.0143 |
| O=C(c1cnc(OCc2ccccc2)nc1)c1cccc(C(F)(F)F)c1 | > | 1.11 |
| O=C(c1cccc(C(F)(F)F)c1)c1ccc(NCc2ccccc2)nn1 | = | 0.0864 |
| Cc1cccc(C(=O)c2cnc(NCc3ccc(C#N)cc3)nc2)c1 | = | 0.709 |
| N#Cc1cccc(C(=O)c2cnc(NCc3cncnc3)nc2)c1 | = | 0.0166 |
| N#Cc1cccc(C(=O)c2cnc(NCc3cccnc3)nc2)c1 | = | 0.0046 |
| O=C(c1cnc(NCc2ccc(F)cc2)nc1)c1cccc(Cl)c1 | = | 0.031 |

----------
Biological target: human vanin-1 (Homo sapiens (Human), UniProt O95497)
Assay: Human Vanin-1 Enzyme Assay 2
Format: biochemical
Settings: 1 nM human vanin-1, 10 uM substrate, 45 min
pIC50: −log10 of the molar value.

| entrySmiles | pIC50 |
| --- | --- |
| O=C(c1ccc(NCc2cncnc2)nc1)c1cccc(C(F)(F)F)c1 | 7.50 |
| N#Cc1cccc(C(=O)c2cnc(NCc3cccnc3)nc2)c1 | 7.95 |
| N#Cc1cccc(C(=O)c2cnc(NCc3ccccc3Cl)nc2)c1 | 7.15 |

----------
Target: human vanin-1 (Homo sapiens (Human))
Assay: Human Vanin-1 Enzyme Assay 3
Format: biochemical
Settings: 2 nM human vanin-1, 10 uM substrate, 15 min
pIC50: −log10 of the molar value.

| molecule | measuredOn | ltGtEq | pIC50 |
| --- | --- | --- | --- |
| O=C(c1cnc(NCc2ccc(F)cc2)nc1)c1cc(F)cc(C(F)(F)F)c1 [Example 127] | human vanin-1 (Homo sapiens (Human)) | = | 7.44 |
| COc1ccc(C(=O)c2cnc(NCc3ccccc3)nc2)cc1 [Example 74] | human vanin-1 (Homo sapiens (Human)) | = | 6.13 |
| O=C(c1cnc(NCc2cccnc2)nc1)c1ccccc1Cl [Example 102] | human vanin-1 (Homo sapiens (Human)) | = | 6.14 |
| O=C(c1cnc(NCc2cccnc2)nc1)c1ccc(F)c(C(F)(F)F)c1 [Example 81] | human vanin-1 (Homo sapiens (Human)) | < | 7.77 |
| O=C(c1cnc(OCc2ccc(OC(F)(F)F)cc2)nc1)c1cccc(C(F)(F)F)c1 [Example 158] | human vanin-1 (Homo sapiens (Human)) | < | 5.54 |
| COc1ccc(COc2ncc(C(=O)c3cccc(C(F)(F)F)c3)cn2)cc1 [Example 157] | human vanin-1 (Homo sapiens (Human)) | < | 5.63 |
| COc1ccc(CNc2ncc(C(=O)c3ccc(C(F)(F)F)cc3)cn2)cc1 [Example 55] | human vanin-1 (Homo sapiens (Human)) | > | 7.78 |
